- test name: qHTS assay to identify small molecule antagonists of the thyroid receptor (TR) signaling pathway - cell viability counter screen (AID 743064); further: on the % scale 0 is the no-effect control and ±100 the full control effect; nearly all actives have a fitted effect of over 50% in size
- measurement context: GH3.TRE-Luc viability, CellTiter-Fluor, 24 h; series mostly up to 70.3 µM
Inconclusive results are not listed. Calls of active or inactive are those of the source. The call rests on the fitted dose curve; in most records, active means well fitted cell-killing curve with a large enough effect in the repeat runs; inconclusive means weak or mixed curves, or effect the other way; inactive means no such curve, though single readings can be large or run the other way.
property label: outcome

CNC(=O)N(C)c1nnc(C(C)(C)C)s1 inactive
c1ccc(NNc2ccccc2)cc1 inactive
CCOCN(C(=O)CCl)c1c(C)cccc1CC inactive

====

- test name: qHTS assay to identify small molecule antagonists of the estrogen receptor alpha (ER-alpha) signaling pathway - cell viability counter screen (AID 743074);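 further: HEK293 cells carrying ER-alpha-UAS-bla reporter stimulated with 17beta-estradiol; nearly all actives have a fitted effect of over 45% in size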
- measurement context: ERalpha-bla HEK293 viability, CellTiter-Glo luminescence, 18 h; series mostly up to 69.4 µM
Inconclusive results are not listed. Active and inactive are the calls of the source. The call rests on the fitted dose curve.
Log the outcome using a class from 1 (yes) = active, 0 (no) = inactive

stdin: Please share the test call associated with "Nc1ccc(-c2ccc(N)c(N)c2)cc1N" .
stdout: 0 (no)

stdin: Please share the test call associated with "Cc1c(COC(=O)[C@@H]2[C@H](/C=C(\Cl)C(F)(F)F)C2(C)C)cccc1-c1ccccc1" .
stdout: 1 (yes)

stdin: Please share the test call associated with ClC1C(Cl)C(Cl)C(Cl)C(Cl)C1Cl (centres undefined) .
stdout: 0 (no)

stdin: Please share the test call associated with "Cc1ccc2c(c1N)C(=O)c1ccccc1C2=O" .
stdout: 0 (no)

stdin: Please share the test call associated with "Cc1ccccc1[N+](=O)[O-]" .
stdout: 0 (no)

stdin: Please share the test call associated with "c1ccc(N=Nc2ccccc2)cc1" .
stdout: 0 (no)

stdin: Please share the test call associated with "CCCCCc1cc(O)cc(O)c1" .
stdout: 0 (no)

stdin: Please share the test call associated with CC(C)C(=O)OCC(C)(C)C(OC(=O)C(C)C)C(C)C (centres undefined) .
stdout: 0 (no)

stdin: Please share the test call associated with "c1ccc(NNc2ccccc2)cc1" .
stdout: 0 (no)

stdin: Please share the test call associated with c1cc(OCC2CO2)ccc1Cc1ccc(OCC2CO2)cc1 (centres undefined) .
stdout: 0 (no)

stdin: Please share the test call associated with "Oc1cc(Cl)c(Cl)cc1Cl" .
stdout: 0 (no)

stdin: Please share the test call associated with "Nc1ccc(Cl)c(Cl)c1" .
stdout: 0 (no)

stdin: Please share the test call associated with "CC(C)(C)c1ccccc1O" .
stdout: 0 (no)

stdin: Please share the test call associated with "CCC(C)(c1ccc(O)cc1)c1ccc(O)cc1" .
stdout: 0 (no)

====

- measurement target: Peroxisome proliferator-activated receptor delta (Homo sapiens) (UniProt Q03181)
- Sequence (Q03181 whole entry, looked up): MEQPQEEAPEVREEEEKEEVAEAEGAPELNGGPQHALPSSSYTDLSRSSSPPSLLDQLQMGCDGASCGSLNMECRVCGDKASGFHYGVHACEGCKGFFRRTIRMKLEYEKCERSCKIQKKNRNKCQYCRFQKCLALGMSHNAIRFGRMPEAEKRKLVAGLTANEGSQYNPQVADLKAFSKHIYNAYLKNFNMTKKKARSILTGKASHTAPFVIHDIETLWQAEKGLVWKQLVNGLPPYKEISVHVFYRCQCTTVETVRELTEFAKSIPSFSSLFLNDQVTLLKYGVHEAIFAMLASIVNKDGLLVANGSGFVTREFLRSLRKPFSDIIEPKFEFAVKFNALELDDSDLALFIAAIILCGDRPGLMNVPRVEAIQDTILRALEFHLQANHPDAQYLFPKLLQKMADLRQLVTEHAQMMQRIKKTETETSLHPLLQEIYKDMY
- test name: qHTS assay to identify small molecule antagonists of the peroxisome proliferator-activated receptor delta (PPARd) signaling pathway (AID 743215);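 further: cells stimulated with agonist L165041 at 300 nM final during compound exposure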
- measurement context: HEK293H PPARd-UAS-bla, beta-lactamase FRET ratio, antagonist, 17 h; series mostly up to 62 µM
Results filed as inconclusive are left out. Calls of active or inactive are those of the source. Calls come from the whole dose curve; as a rule, active = well fitted inhibition curve with a large enough effect in the signal ratio in the repeat runs (not every such curve was filed as active); inconclusive = weak or mixed curves, or effect the other way; inactive = no such curve, though single readings can be large or run the other way; the % refers to the signal ratio.
Log the outcome using a class from active, inactive

stdin: Please share the test call associated with "CCN(CC)C(=O)/C(Cl)=C(\C)OP(=O)(OC)OC" .
stdout: inactive

stdin: Please share the test call associated with "Oc1ccc(-c2ccccc2)cc1" .
stdout: inactive

stdin: Please share the test call associated with "Oc1cc(Cl)ccc1Cl" .
stdout: inactive

stdin: Please share the test call associated with "NNC(=S)NN" .
stdout: inactive

stdin: Please share the test call associated with "CCCCCCOC(=O)c1ccccc1C(=O)OCCCCCC" .
stdout: inactive

stdin: Please share the test call associated with "O=Cc1ccco1" .
stdout: inactive

stdin: Please share the test call associated with "C#C[C@]1(O)CC[C@H]2[C@@H]3CCC4=CC(=O)CC[C@]4(C)[C@H]3CC[C@@]21C" .
stdout: inactive

stdin: Please share the test call associated with "O=[N+]([O-])c1cccc2ccccc12" .
stdout: inactive

stdin: Please share the test call associated with "CNC(=O)N(C)c1nnc(C(C)(C)C)s1" .
stdout: inactive

stdin: Please share the test call associated with "Nc1ccc(Cl)c(Cl)c1" .
stdout: inactive

stdin: Please share the test call associated with "CCCCOCCOP(=O)(OCCOCCCC)OCCOCCCC" .
stdout: inactive

stdin: Please share the test call associated with "Cc1ccc(OP(=O)(Oc2ccc(C)cc2)Oc2ccc(C)cc2)cc1" .
stdout: inactive

stdin: Please share the test call associated with "COP(=S)(OC)Oc1cc(Cl)c(Cl)cc1Cl" .
stdout: inactive

stdin: Please share the test call associated with "O=C(Nc1ccc(Br)cc1)c1cc(Br)cc(Br)c1O" .
stdout: active

Reference for the values: PubChem BioAssay (Tox21)
